- procedure.details: Human Liver Microsome Stability Assay (HLM)
- Type: in vitro ADME
- condition.info: human, liver microsomes, read-out: HLM t1/2
- Description: The stability of the N-oxide compounds provided herein was studied compared to analogs not having N-oxide. […] This enhanced metabolic stability corresponds to an extended half-life and duration of action when dosed in vivo.
readout.label: half-life (min)

compound: CN(Cc1cncc2cn[nH]c12)C(=O)c1ccc(-c2cccc(F)c2)c(OC2CC2)c1 [C]
readout.label: half-life
unit.annotation: min
qualifier: =
meas.value: 4

compound: CN(Cc1cccc2cn[nH]c12)C(=O)c1ccc(-c2cccc(F)c2)c(OC2CC2)c1 [D]
readout.label: half-life
unit.annotation: min
qualifier: =
meas.value: 1.5

compound: CCOc1cc(C(=O)N(C)Cc2c[n+]([O-])cc3cn[nH]c23)ccc1-c1cccc(F)c1 [Compound 001]
readout.label: half-life
unit.annotation: min
qualifier: >
meas.value: 145

compound: CN(Cc1c[n+]([O-])cc2cn[nH]c12)C(=O)c1ccc(-c2cccc(F)c2)c(OC2CC2)c1 [Compound 004]
readout.label: half-life
unit.annotation: min
qualifier: >
meas.value: 145

compound: CCOc1cc(C(=O)N(C)Cc2cncc3cn[nH]c23)ccc1-c1cccc(F)c1 [B]
readout.label: half-life
unit.annotation: min
qualifier: =
meas.value: 2
